Source of measurements: the nanobody polyreactivity screen of Harvey et al. (2022)

Experiment: yeast display, Sf9 membrane polyspecificity reagent, FACS + sequencing; frameworks hold sequencing errors
QUANTITY KIND: polyreactivity (PSR sort gate)

Sample records with polyreactivity (PSR sort gate):
QVQLVESGGGLVQAGGSLRLSCAASGSIFGGYAMGWYRQAPGKERELVARITDRGGSTDYADSVKGRFTISRDNAKNTVYLQMNSLTPEDTAVYYCAKRGDRYEKRPRDYWGQGTQVTVSS	low polyreactivity
QVQLVESGGGLVQAGASLRLSCAASGSTFGSYTMGWYRQAPWKERELVAAINWTGGNTYYADSVKGRFTISRDYAKNTVYLQMNSLKPEDTAVYYCAAAFYIYGVEGDYWGQGTQVTVSS	low polyreactivity
QVQLVESGGGLVQAGGSLRLSCAASGIIFLDNAMVWYRQAPGKERELVAAITTGGITYYADSVKGRFTISRDNAKNTVYLQMNSLKPEDTAVYYCAADNEWPRYDYWGQGTQVTVSS	low polyreactivity
QVQLVESGGGLVQAGGSLRLSCAASGSTFDSNVMGWYRQAPGKEWELVAAISIGDSTNYADSVKGRFTISRDNAKKTVYLQMNSLKPEDTAVYSCNATYSRGGYWYFGFDWGQGTQVTVSS	low polyreactivity
QVQHVESGVGLVQAGGSLRLSCAASGSTFDRYAMRWYRQAPGKERELVAAISWSAGRTYYADSVKGRFTISRDNAKNTVYLQMNSLKPEDTAVYYCAADQIVSGTYDYYWGQGTQVTVSS	low polyreactivity
QVQLVESGGGLVQAGGSLRLSCAASGRIFGRYAMGWYRQAPGNERELVAAISRRGSRTYYADSVKGRFTISRDNAKNTVYLQMNSLKPEDTAVYYCNALTGSFKTYSFDYWGQGTQVTVSS	high polyreactivity

Prompt: For the sequence shown here, QVHLVDSGGGLVQAGGSLRLSCAASGLIFVSYAMGWYRQEPGKERELVASITDSDSSTYYADSVKGRFTISRDNAKNTVYLQMNSLKPEDTAVYYCATGGRTEIWYPTLDYWGQGTQVTVSS , give the reported polyreactivity (PSR sort gate).
Response: low polyreactivity

Prompt: Using the record for QVQLVESGGGLVQGGGSLRLSCAASGSIFPGNAMGCYRQAPGKERELLAVIDFSGASTYYADSLKGRFTISRDNAKNTVYLQMKSLKPEATAVYWGQGTQVTVSS , report its polyreactivity (PSR sort gate).
Response: low polyreactivity

Prompt: Data request, read-out polyreactivity (PSR sort gate), for QVQLVESGGGLVQAGGTLRLSCAASGRTFVPYAMGWYRQAPGKERELVATISSSGGSTYYADSVKGRFTISRDNSKNTVYLQMNSLKPEDTAVYYCATADRWSSSYYRSVRWYHYDYWGQGTQVTVSS
Response: low polyreactivity

Prompt: Which polyreactivity (PSR sort gate) is reported for this sequence? QDQLVESGVGLVQAGGSHRLSSAASGSTFRRNTMGWYRQAPGKERELVAAISNGGRTYYADSVKGRFTISRDNAKNTVYLQMNRLKPEDTAVYYCNKVRSPWYDSWGQGTQVTVSS
Response: high polyreactivity

Prompt: Could you tell me which polyreactivity (PSR sort gate) is on file for QVQLVESGGGLVQAGGSLRLSCDASGRIFFNTMGWYRQAPGKERELVAAISSGGSTSYADSVKGRFTISRDNAKNTVYLQMNSLKPEDTAVYYCADLKLYIYDYWGQGTQVTVSS ?
Response: high polyreactivity

----------
Assay: yeast display, Sf9 membrane polyspecificity reagent, FACS + sequencing; frameworks hold sequencing errors
QUANTITY KIND: polyreactivity (PSR sort gate)

QVQLVESGAGLVQAGGSLRLRCAASRRSFRNYAMGWYRPAPGKEREVVAAIRSGVRTYYADSVKGRFTISRDNAKNTVYLQMNSLKPEDTAVYYCAVATGLLYKSHGYWGQGTQVTVSS	low polyreactivity
QVQLVESGGGLVQAGGSLRLSCAASGSIFGYYTMGWYRQAPGKERELVAAITYSGGSTYYADSVKGRFTISRDNAKNTVYLQMNSLKPEDTAVYYCNAKSAAHRYVRRHDYWGQGTQVTVSS	low polyreactivity
QVQLVESGGGLVQAGGSLRLICAASGSIFYYYAMGWYRQAPGKERELVATITWNGAGTFYADSVKGRFTISRDNAKNTVYLQMNSLKPEDTSVYYCAASWYGESGYEYWGQGTQVTVSS	low polyreactivity
QVQLVESGGRLVQAGGSLRLSCAASGFTFKYYAMGWYTQAPGKERELVAAIRRSAGSTNYADSVKGRFTISRDNAKNTVYLQMNSLKPEDTAVYYCNTVGTRQPMDYWGQGTQVTVSS	high polyreactivity
QVQLVESGGGLDQARGSLRLSCAASGSTLAVYAIGWYRQAPGKEREFVAAISWSGVSTYYADSVKGRFTISLDNAKNTVYLQMNSLKPEDTAVYDCAAKRVRALYGGSEGGYWGQGTQVTVSS	low polyreactivity

Prompt: Could you tell me which polyreactivity (PSR sort gate) is on file for QVQLVESGGGLVQAGGSLRLSCAASGTITSYAMGWYRQAPGKERELVASIRYRGGSTYYADSVKGRFTISRDNAKNTVYLQMNSLKPEDTAVYYCAADNFAPEFYYWGQGTQVTVSS ?
Response: low polyreactivity

----------
Test: yeast display, Sf9 membrane polyspecificity reagent, FACS + sequencing; frameworks hold sequencing errors
QUANTITY KIND: polyreactivity (PSR sort gate)

Worked cases, polyreactivity (PSR sort gate) given:
QVQLVESGGGLVQAGGSLRLSCAASGSTFGLYAMGWYRQAPGKEREFVAAITASGGRTYYADSVKGRFTISRDHAKNTVYLQMNSLKPEDTAVYYCNSRTSHYDKYGYWGQGTQVTVSS	high polyreactivity
QVQLVESGGGLVQAGGSLRLSCAASGFTVYYYALGWYRQAPGKERELVAAISDSGGITSYADSVKGRFTISRDNAKNTVYLQMNSLKPEDTAVYYCAYIFGWSSSSKSYYYWGQGTQVTVSS	low polyreactivity
QVQLEESGGGLVQAGGSLRLSCAASGFTFSTNSMGWYRPAPGKERELVAAISRGGSTNYADSVKGRFTISRDNAKNTVYLQMNSLKPEDTAVYYCNAYQSPDEEEYYWGQGTQVTVSS	low polyreactivity
QVQLVESGGGLVQAGGSLRLSCAASGSTFKNNAMGWYRQEPGKEREFVASISKRGGSTYYADSVKGRFTISRDNAKNTVYLQMNSLKPEDTAVDYCAKTYWSYGWSHGDYGEFDYWGQGTQVTVSS	high polyreactivity
QVQLVESGGGLVQAGGSLRLSCGASGFIFKSYAMGWYRQATGKERELVAAFSRSGSSTYYADSVMGRFTISRDNAKNTVYLQMNSLKPEDTAVYYCAKKGYRFIHFGYDYWGQGTQVTVSS	high polyreactivity
QVQLVESGGGLVQAGGSLRLSCAASGRTFGLYAMGWYRQAPGKERELVASNTYSGGRTNYADSVKGRFTISRDNAKNTVYLQMNSLKPEDTAVYYCAASLWDDDSRLMYYWGQGTQVTVSS	high polyreactivity
QVQLVESGGGLVQAGGSLRLSCAASGSIFYINAMGWYRQAPGKERELVAAITSGGTYYADSVKGRFTISRDTAKNTVYLQMNSLKPEDTAVYYCAADREGTPLFDYWGQGTQVTVSS	low polyreactivity
QVQLVESGGGLVQAGGSLRLSCDASGSIFRLYAMGWYRQAPGKERELVARITRRCGDTYADSVKGRFTISRDNAKNTVYLQMNSLKREDTAVYYCAADGYHRYPGSSGYGYWGQGTQVTVSS	high polyreactivity

Prompt: GET /values?readout=polyreactivity (PSR sort gate)&item= QVQLVESGGGLVQAGGSLRLSCAASGFTFATNAMGWYRQAPGTERELVAAISSRGGSTYYADSVKGRFTISRDNAKNTVYLQMNSLKPEDTAVYYCNAYRRLGGYDYWGQGTQVTVSS
Response: high polyreactivity

Prompt: polyreactivity (PSR sort gate) for QVQLVESAVGLVQAGGSLRLSCDASGRSYYTYAMGWYRQAPGKERELVATITDGGSTYYAESVKGRFTISRDNAKNTVYLQMNSLKPEDTAVYYCAADAYQWYDWGQGTQVTVSS ?
Response: low polyreactivity

Prompt: I would be grateful if you could share the reported polyreactivity (PSR sort gate) for QVQLVESGGGLVQAGGSLRLSCAASGRTFYSFNAMVCYRQAPVKERELVAAIVGDGGITYYADSVKGRFTISRDNANNTVFLQMNSLKPEDTAVYYCAAETLHSSDGEDDYWGQGTQVSVSS .
Response: low polyreactivity

----------
Assay: yeast display, Sf9 membrane polyspecificity reagent, FACS + sequencing; frameworks hold sequencing errors
QUANTITY KIND: polyreactivity (PSR sort gate)

QVQLVESGGGLVQAGGSLRVSCAASGLTFKYNALGWYIQAPGKERELVASISSGSTNYADSVKGRFTISRDNAKNSVYLEMNSLKPEDTSVYYCAASVSRGKRFRYGYVFKMDYWGQGTQLTVSS	low polyreactivity
QVQLVESGGGLVQAGGSLRLSCAASGPTFHGYDMGWNRQAPGKERELVARINWSDGRTYYADSVKGRFTISRDNAKNTVYLQMISLKPEDTAVYYCAADKTGSYAPAWYYYWGQGTQVTVSS	low polyreactivity
QVQLVESGGGLVQAGGSLRLSCAASGSIFAYNAMGWYRQAPGKERELVAAISSGGRTKYADSVKGRFTISRDNAKNTVYLQMNSLKPEDTAVYYCAAESYTGKYSWVWKWYDYWGQGTQVTVSS	low polyreactivity
